Quick list: log10(IC50) per entry.
# target entity: human active recombinant p38α-6His tagged (Homo sapiens)
# Construct: 6His
# Sequence (Q16539 whole entry): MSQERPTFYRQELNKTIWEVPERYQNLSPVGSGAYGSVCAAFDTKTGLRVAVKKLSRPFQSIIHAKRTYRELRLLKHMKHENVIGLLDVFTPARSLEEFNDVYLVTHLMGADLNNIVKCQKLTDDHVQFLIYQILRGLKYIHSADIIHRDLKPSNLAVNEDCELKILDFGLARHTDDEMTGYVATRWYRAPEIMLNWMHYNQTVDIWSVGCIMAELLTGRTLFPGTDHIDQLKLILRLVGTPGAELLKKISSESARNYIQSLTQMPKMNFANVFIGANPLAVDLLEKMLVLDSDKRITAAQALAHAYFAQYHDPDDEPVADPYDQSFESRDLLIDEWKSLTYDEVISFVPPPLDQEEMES
# run description: p38 Alpha Enzyme Assay (AlphaScreen, biotinylated-ATF2 substrate)
# Format: biochemical
# experimental parameters: pre-incubated 4 hours at 37° C., reaction initiated with ATP; 0.5 nM enzyme; read-out: p38 pIC50 (converted)
property label: log10(IC50) (log10 of the value in nM)

| structure smiles | target entity | property label | experimental value |
| --- | --- | --- | --- |
| Cc1ccc(C(=O)NC2CC2)cc1-c1ccc2c(=O)n(Cc3ccc(C4CCNCC4)cc3)c(C)cc2c1 | human active recombinant p38α-6His tagged (Homo sapiens) | log10(IC50) | 0.40 |
| Cc1ccc(C(=O)NC2CC2)cc1-c1ccc2c(=O)n(CC3CC3)cc(CN3CCN(C)CC3)c2c1 | human active recombinant p38α-6His tagged (Homo sapiens) | log10(IC50) | -0.20 |
| Cc1ccc(C(=O)NC2CC2)cc1-c1ccc2c(=O)n(Cc3ccccc3)cc(C(=O)N3CC[C@@H](N)C3)c2c1 | human active recombinant p38α-6His tagged (Homo sapiens) | log10(IC50) | 0.30 |
| Cc1c(F)cc(C(=O)NC2CC2)cc1-c1ccc2c(=O)n(CC3CC3)cc(CN3CCN[C@@H](CO)C3)c2c1 | human active recombinant p38α-6His tagged (Homo sapiens) | log10(IC50) | -1.40 |
| Cc1c(F)cc(C(=O)NC2CC2)cc1-c1ccc2c(=O)n(CC3CC3)cc(CN3C[C@@H](C)N[C@@H](C)C3)c2c1 | human active recombinant p38α-6His tagged (Homo sapiens) | log10(IC50) | -0.50 |
| C=CCn1ccc2cc(-c3cc(C(=O)NC4CC4)ccc3C)ccc2c1=O | human active recombinant p38α-6His tagged (Homo sapiens) | log10(IC50) | 0.90 |
| Cc1c(F)cc(C(=O)NC2CC2)cc1-c1ccc2c(=O)n(Cc3ccccc3)cc(C(=O)NCCN(C)C)c2c1 | human active recombinant p38α-6His tagged (Homo sapiens) | log10(IC50) | -0.40 |
| CCC(CC)Cn1ccc2cc(-c3cc(C(=O)NC4CC4)ccc3C)ccc2c1=O | human active recombinant p38α-6His tagged (Homo sapiens) | log10(IC50) | 0.50 |
